- assay-method-text: in vivo
- run-conditions: rat, iv
recorded-endpoint: Vd (L/kg)
Write the value in L/kg as a bare number.

Ask | Returns the measured Vd for the input compound. Input: CCc1cc2c(cc1-c1cnn(CC(=O)N(C)C)c1)C(C)(C)c1[nH]c3cc(C#N)ccc3c1C2=O
Reply | 1.17

----------
- assay-method-text: in vivo
- run-conditions: rat, iv
recorded-endpoint: half-life

Ask | Look up half-life for this compound: CCc1cc2c(cc1-c1cnn(CC(=O)N(C)C)c1)C(C)(C)c1[nH]c3cc(C#N)ccc3c1C2=O
Reply | 3.77 h

----------
Exercise: for every item that follows, state its recorded Vd.
- assay-method-text: in vivo
- run-conditions: rat, iv, 5 mg/kg
Report the figure in L/kg without appending any unit label.

Ask | Given CC1(C)c2cc(C3CCN(CC4(O)CCOCC4)CC3)ccc2C(=O)c2c1[nH]c1cc(C#N)ccc21 , state its recorded Vd.
Reply | 12.9

Ask | If you can, please state the reported Vd value of CC1(C)c2cc(C3CCN(CC4CCOCC4)CC3)ccc2C(=O)c2c1[nH]c1cc(C#N)ccc21 .
Reply | 17.4

----------
- assay-method-text: in vivo
- run-conditions: rat, po, 10 mg/kg
I'd be grateful if you could share measured Tmax for these entries.
I only need the number, in h, no unit after it.

Ask | Entry CC1(C)c2cc(C3CCN(CC4CCOCC4)CC3)ccc2C(=O)c2c1[nH]c1cc(C#N)ccc21 : reported Tmax = ?
Reply | 4.5

Ask | State the recorded Tmax for this entry: CCc1cc2c(cc1-c1cnn(CC(=O)N(C)C)c1)C(C)(C)c1[nH]c3cc(C#N)ccc3c1C2=O
Reply | 3.3

Ask | Name the reported Tmax value associated with the compound CC1(C)c2cc(C3CCN(CC4(O)CCOCC4)CC3)ccc2C(=O)c2c1[nH]c1cc(C#N)ccc21
Reply | 3.3

----------
- assay-method-text: in vivo
- run-conditions: rat, iv
recorded-endpoint: clearance (mL/min/kg)
Numbers only here, please. The scale is mL/min/kg.

Ask | # query: clearance of entry CCc1cc2c(cc1-c1cnn(CC(=O)N(C)C)c1)C(C)(C)c1[nH]c3cc(C#N)ccc3c1C2=O
Reply | 10.8

----------
- assay-method-text: in vivo
- run-conditions: rat, iv, 5 mg/kg
recorded-endpoint: half-life
Show the value, then the unit it is measured in.

Ask | // lookup half-life for CC1(C)c2cc(C3CCN(CC4(O)CCOCC4)CC3)ccc2C(=O)c2c1[nH]c1cc(C#N)ccc21
Reply | 5.41 h

Ask | # get_value(readout='half-life', item= CC1(C)c2cc(C3CCN(CC4CCOCC4)CC3)ccc2C(=O)c2c1[nH]c1cc(C#N)ccc21 )
Reply | 15.8 h
